assay: Inhibition of Escherichia coli K12 ADCS by spectrophotometry
property: Ki (µM)
State just the number; it will be interpreted in µM.

Problem: Could you share which Ki value was measured for Cc1ccc(C(=O)N[C@@H](CCCCNC(=O)c2cccc(OCC(=O)O)c2)C(=O)N[C@@H](Cc2cccc(Cl)c2)C(N)=O)c([N+](=O)[O-])c1O ?
Solution: 770

Data credit: BindingDB's records for doi:10.1021/jm100158v
